# measured_on: T1, His-tagged human TSLP antigen (huTSLP-his) (human)
# T1 construct: Secreted from HEK293E and purified on nickel; whole entry named; also called Human TSLP-his
# measurement_notes: ELISA, coated huTSLP-his;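 note: binding of antibodies to plate-bound TSLP read as absorbance at 450 nm after TMB colour development, EC50 derived from binding curves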
measurement_label: pEC50
Scale: negative log10 of molar concentration, which is what pEC50 denotes.

• hu119-29 (antibody, human IgG1, kappa, V domains shown, IgG1-YTE, kappa; also called hu119VH3 + hu119VL2-N31Q) VH: EVQLVQSGAEVKKPGSSVKVSCKASGFTFSTYNMHWVKHAPGQGLEWIGAIYPGNGETSYNQKFKDRATLTVDKSTSTAYMELSSLRSEDTAVYYCAREDDYGEGYFDVWGQGTTVTVSS VL: DIVLTQSPDSLAVSLGERATINCRASESVDQSGLSFMHWYQQKPGQPPKLLIYRASNLGSGVPDRFSGSGSGTDFTLTISSLQAEDVAVYYCQQINTDPLTFGQGTKLEIKR = 9.56

Now examine the next entry.
Req: So what's the measured pEC50 for this one? hu179-21 (antibody, human IgG1, kappa, V domains shown, IgG1-YTE, kappa; also called hu179VH1-N55V + hu179VL2) VH: EVQLVQSGAEVKKPGSSVKVSCKASGGTFSNYLIEWVRQAPGQGLEWMGVIDPGVGDTNYNENFKGRVTITADKSTSTAYMELSSLRSEDTAVYYCAREDNTGTAFDYWGQGTTVTVSS VL: DIVMTQSPDSLAVSLGERATINCKASQSVSSDVTWYQQKPGQSPKLLIYYVSNHYTGVPDRFSGSGSGTDFTLTISSLQAEDVAVYYCQQHHRFPLTFGQGTKLEIKR
Resp: 9.01

Source: patent US20240016931A1
